tested on: HT-29; assay: NCI tumour cell line growth inhibition, 48 h
Active and inactive are the calls of the source. No stated cut-off is given here; in the data, active = GI50 up to about 1.1 µM and inactive = higher.
parameter: GI50

>  <compound>
Nc1nc(CCC(=O)Nc2cccc(C(F)(F)F)c2)cc(-c2ccc3ccccc3c2)n1

>  <parameter>
GI50

>  <result>
> 100 µM (inactive)

$$$$
>  <compound>
CCCCC/N=C/c1c(O)c(O)c(C(C)C)c2cc(C)c(-c3c(C)cc4c(C(C)C)c(O)c(O)c(/C=N/CCCCC)c4c3O)c(O)c12

>  <parameter>
GI50

>  <result>
2.88 µM (inactive)

$$$$
>  <compound>
CCOC(=O)c1sc2nc1CSc1sc(=S)sc1SCc1nc(sc1C(=O)OCC)-c1nc(c(C(=O)OCC)s1)CSc1sc(=S)sc1SCc1nc-2sc1C(=O)OCC

>  <parameter>
GI50

>  <result>
> 10 µM (inactive)

$$$$
>  <compound>
C=CCN1C[C@@H](C)N([C@@H](c2ccc(C(=O)N(CC)CC)cc2)c2cccc(OC)c2)C[C@@H]1C

>  <parameter>
GI50

>  <result>
> 100 µM (inactive)

$$$$
>  <compound>
C=CCCN1CCc2c([nH]c3ccccc23)C1C(=O)O (centres undefined)

>  <parameter>
GI50

>  <result>
> 100 µM (inactive)

$$$$

QUERY: Would you kindly share the measured GI50 for O=C(OC1CC(n2cc(F)c(=O)[nH]c2=O)OC1CSC(=O)c1ccccc1)c1ccccc1 (centres undefined) ?
RESULT: 17.8 µM (inactive)

QUERY: Same again, this time with Cc1cc(=O)n2c3c(c4c(cc13)c(CN(C)C)cc(=O)n4C)OC2
RESULT: 8.13 µM (inactive)

QUERY: Same again, this time with Cc1ccc(/C=C/C(=O)c2c([O-])on[n+]2-c2ccccc2)cc1
RESULT: 1.9 µM (inactive)

QUERY: Same again, this time with O=C(NCCCl)SCCO
RESULT: > 100 µM (inactive)

====

test system: HT-29; assay: NCI tumour cell line growth inhibition, 48 h
Active and inactive are the calls of the source. No stated cut-off is given here; in the data, active = GI50 up to about 1.1 µM and inactive = higher.
parameter: GI50

>  <molecule>
COc1cc2cc(C(=O)N3CC(CCl)c4ccc(O)cc43)[nH]c2c(OC)c1OC (stereo not given)

>  <parameter>
GI50

>  <result>
0.00104 µM (active)

$$$$
>  <molecule>
OC[C@H]1C[C@@H]2Cc3ccccc3N2N1

>  <parameter>
GI50

>  <result>
> 100 µM (inactive)

$$$$
>  <molecule>
CNC(=S)N1CCN(C(C)=O)C1=S

>  <parameter>
GI50

>  <result>
67.8 µM (inactive)

$$$$
>  <molecule>
Cn1cnc([N+](=O)[O-])c1Sc1nc(N)nc2c1ncn2C1OC(CO)C(O)C1O (stereo not given)

>  <parameter>
GI50

>  <result>
6.27 µM (inactive)

$$$$
>  <molecule>
Nc1nc(O)c2nc(CNc3ccc(C(=O)NC(CCC(=O)O)C(=O)O)cc3)cnc2n1 (stereo not given)

>  <parameter>
GI50

>  <result>
> 100 µM (inactive)

$$$$

QUERY: Would you kindly share the measured GI50 for Cc1ccc2nc(Cl)c(/C=N/N3C(=O)/C(=C/c4cccc([N+](=O)[O-])c4)N=C3c3ccccc3)cc2c1 ?
RESULT: 45.3 µM (inactive)

QUERY: Same again, this time with O=C1CCC2(c3ccccc3)Nc3ccccc3N12 (stereo not given)
RESULT: > 100 µM (inactive)

QUERY: Same again, this time with CC(C)(C)c1cc2c3c(c1)c(=O)c1cccc4c(O)c5cccc(c2=O)c5c-3c41
RESULT: 27.7 µM (inactive)

QUERY: Same again, this time with COc1ccc(-c2oc3c(OC)c(OC)c(OC)c(O)c3c(=O)c2OC)cc1OC
RESULT: 23.6 µM (inactive)

QUERY: Same again, this time with CC[P+](c1ccccc1)(N(C)C)N(C)C
RESULT: > 100 µM (inactive)
